# maps each entry to its kon
System Name: α3β4 nAChR (Rattus norvegicus, UniProt P04757+P12392)
Sequence (P04757 26-499): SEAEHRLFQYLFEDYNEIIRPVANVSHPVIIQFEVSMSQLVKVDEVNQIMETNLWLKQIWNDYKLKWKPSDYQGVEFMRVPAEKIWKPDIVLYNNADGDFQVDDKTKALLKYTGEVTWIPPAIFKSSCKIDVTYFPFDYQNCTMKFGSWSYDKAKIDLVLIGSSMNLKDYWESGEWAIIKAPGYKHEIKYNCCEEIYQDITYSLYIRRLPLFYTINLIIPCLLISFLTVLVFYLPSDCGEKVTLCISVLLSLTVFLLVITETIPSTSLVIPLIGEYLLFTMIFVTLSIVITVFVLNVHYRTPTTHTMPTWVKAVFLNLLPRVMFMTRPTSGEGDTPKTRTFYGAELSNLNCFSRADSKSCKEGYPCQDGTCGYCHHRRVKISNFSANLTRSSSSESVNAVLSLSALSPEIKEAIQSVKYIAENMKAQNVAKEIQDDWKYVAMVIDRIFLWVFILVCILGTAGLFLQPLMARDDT
Sequence (P12392 21-495): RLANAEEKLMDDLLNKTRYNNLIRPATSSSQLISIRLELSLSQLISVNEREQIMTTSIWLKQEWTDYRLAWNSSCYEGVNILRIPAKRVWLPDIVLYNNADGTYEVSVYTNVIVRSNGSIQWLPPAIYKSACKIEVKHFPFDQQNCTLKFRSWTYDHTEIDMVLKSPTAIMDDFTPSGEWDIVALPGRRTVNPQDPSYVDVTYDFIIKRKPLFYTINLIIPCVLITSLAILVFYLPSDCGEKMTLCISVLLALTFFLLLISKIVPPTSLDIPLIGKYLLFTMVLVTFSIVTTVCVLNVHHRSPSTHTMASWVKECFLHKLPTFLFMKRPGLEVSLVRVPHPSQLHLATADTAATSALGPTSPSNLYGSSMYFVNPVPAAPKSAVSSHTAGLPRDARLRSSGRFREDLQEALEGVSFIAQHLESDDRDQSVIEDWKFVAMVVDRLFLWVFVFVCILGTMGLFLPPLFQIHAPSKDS
Protocol Text: biochemical
Format: binding
Set-up: host or cells: HEK293 (KXα3β4R2)
Settings: α3β4 nAChR, NLC; read-out: kon association constant rate

{"Compound": "CC(=O)Nc1ccc(O)cc1", "System Name": "α3β4 nAChR (Rattus norvegicus, UniProt P04757+P12392)", "kon [M⁻¹ s⁻¹]": "8.4e+06"}
{"Compound": "COc1ccc2c(c1)[C@@]13CCCC[C@H]1[C@@H](C2)N(C)CC3", "System Name": "α3β4 nAChR (Rattus norvegicus, UniProt P04757+P12392)", "kon [M⁻¹ s⁻¹]": "1.86e+07"}
{"Compound": "c1ccc(C2(N3CCCCC3)CCCCC2)cc1", "System Name": "α3β4 nAChR (Rattus norvegicus, UniProt P04757+P12392)", "kon [M⁻¹ s⁻¹]": "2.32e+07"}
{"Compound": "CN1CC[C@@]23CCCC[C@@H]2[C@@H]1Cc1ccc(O)cc13", "System Name": "α3β4 nAChR (Rattus norvegicus, UniProt P04757+P12392)", "kon [M⁻¹ s⁻¹]": "2.07e+07"}
{"Compound": "COc1ccc2c(c1)[C@]13CCCC[C@@H]1[C@H](C2)N(C)CC3", "System Name": "α3β4 nAChR (Rattus norvegicus, UniProt P04757+P12392)", "kon [M⁻¹ s⁻¹]": "2.37e+07"}
{"Compound": "CCCCC1C(=O)N(c2ccccc2)N(c2ccccc2)C1=O", "System Name": "α3β4 nAChR (Rattus norvegicus, UniProt P04757+P12392)", "kon [M⁻¹ s⁻¹]": "8.7e+06"}
{"Compound": "COc1ccc(C(=O)O)cc1OC", "System Name": "α3β4 nAChR (Rattus norvegicus, UniProt P04757+P12392)", "kon [M⁻¹ s⁻¹]": "9.8e+06"}
{"Compound": "CCC(=O)C(CC(C)N(C)C)(c1ccccc1)c1ccccc1 (stereo not drawn)", "System Name": "α3β4 nAChR (Rattus norvegicus, UniProt P04757+P12392)", "kon [M⁻¹ s⁻¹]": "1.59e+07"}
{"Compound": "CNC1(c2ccccc2Cl)CCCCC1=O (stereo not drawn)", "System Name": "α3β4 nAChR (Rattus norvegicus, UniProt P04757+P12392)", "kon [M⁻¹ s⁻¹]": "3.84e+07"}

----------
System Name: α3β4 nAChR (Rattus norvegicus, UniProt P04757+P12392)
Protocol Text: biochemical
Type: binding
Parameters: host or cells: HEK293 (KXα3β4R2)
Settings: α3β4 nAChR; 10 μM, 20 μl injected; ammonium acetate 10 mM pH 7.4/methanol 85:15
k′(NLC) retention capacity factor values by entry
Readout Type: k′(NLC) retention capacity factor

{"Molecule": "COc1ccc2c(c1)[C@]13CCCC[C@@H]1[C@H](C2)N(C)CC3", "System Name": "α3β4 nAChR (Rattus norvegicus, UniProt P04757+P12392)", "Observed Measurement": 61.30}
{"Molecule": "CC(=O)Nc1ccc(O)cc1", "System Name": "α3β4 nAChR (Rattus norvegicus, UniProt P04757+P12392)", "Observed Measurement": 5.30}
{"Molecule": "CC(=O)Nc1ccccc1 [acetanilide]", "System Name": "α3β4 nAChR (Rattus norvegicus, UniProt P04757+P12392)", "Observed Measurement": 5.95}
{"Molecule": "COc1ccc(CCN(C)CCCC(C#N)(c2cc(OC)c(OC)c(OC)c2)C(C)C)cc1OC (centres unmarked)", "System Name": "α3β4 nAChR (Rattus norvegicus, UniProt P04757+P12392)", "Observed Measurement": 75.93}
{"Molecule": "CNC1(c2ccccc2Cl)CCCCC1=O (centres unmarked)", "System Name": "α3β4 nAChR (Rattus norvegicus, UniProt P04757+P12392)", "Observed Measurement": 8.25}
{"Molecule": "COc1ccc(CCNCCCC(C#N)(c2ccc(OC)c(OC)c2)C(C)C)cc1OC (single isomer, unassigned) [nor-verapamil-S, nor-verapamil]", "System Name": "α3β4 nAChR (Rattus norvegicus, UniProt P04757+P12392)", "Observed Measurement": 97.86}
{"Molecule": "COc1ccc([C@@H]2Sc3ccccc3N(CCN(C)C)C(=O)[C@@H]2OC(C)=O)cc1", "System Name": "α3β4 nAChR (Rattus norvegicus, UniProt P04757+P12392)", "Observed Measurement": 43.53}
{"Molecule": "CC[n+]1c(-c2ccccc2)c2cc(N)ccc2c2ccc(N)cc21", "System Name": "α3β4 nAChR (Rattus norvegicus, UniProt P04757+P12392)", "Observed Measurement": 191.82}
{"Molecule": "COc1ccc(C(=O)O)cc1OC", "System Name": "α3β4 nAChR (Rattus norvegicus, UniProt P04757+P12392)", "Observed Measurement": 4.46}
{"Molecule": "COc1ccc(CC2c3cc(OC)c(OC)cc3CCN2C)cc1OC (centres unmarked)", "System Name": "α3β4 nAChR (Rattus norvegicus, UniProt P04757+P12392)", "Observed Measurement": 22.87}
{"Molecule": "CNCCCC(C#N)(c1ccc(OC)c(OC)c1)C(C)C (centres unmarked)", "System Name": "α3β4 nAChR (Rattus norvegicus, UniProt P04757+P12392)", "Observed Measurement": 22.22}
{"Molecule": "c1ccc(C2(N3CCCCC3)CCCCC2)cc1", "System Name": "α3β4 nAChR (Rattus norvegicus, UniProt P04757+P12392)", "Observed Measurement": 24.06}
{"Molecule": "COc1ccc2c(c1)[C@@]13CCCC[C@H]1[C@@H](C2)NCC3", "System Name": "α3β4 nAChR (Rattus norvegicus, UniProt P04757+P12392)", "Observed Measurement": 56.47}
{"Molecule": "COc1ccc(C(C#N)(CCCN)C(C)C)cc1OC (centres unmarked)", "System Name": "α3β4 nAChR (Rattus norvegicus, UniProt P04757+P12392)", "Observed Measurement": 17.72}
{"Molecule": "CC12CC3CC(C)(C1)CC(N)(C3)C2 [memantine]", "System Name": "α3β4 nAChR (Rattus norvegicus, UniProt P04757+P12392)", "Observed Measurement": 16.71}
{"Molecule": "COc1ccc2c(c1)[C@@]13CCCC[C@H]1[C@@H](C2)N(C)CC3", "System Name": "α3β4 nAChR (Rattus norvegicus, UniProt P04757+P12392)", "Observed Measurement": 35.81}
{"Molecule": "O=C(O)c1ccc([N+](=O)[O-])cc1[N+](=O)[O-]", "System Name": "α3β4 nAChR (Rattus norvegicus, UniProt P04757+P12392)", "Observed Measurement": 7.77}
{"Molecule": "NC12CC3CC(CC(C3)C1)C2", "System Name": "α3β4 nAChR (Rattus norvegicus, UniProt P04757+P12392)", "Observed Measurement": 8.98}
{"Molecule": "CN[C@@H](C)Cc1ccccc1", "System Name": "α3β4 nAChR (Rattus norvegicus, UniProt P04757+P12392)", "Observed Measurement": 8.38}
{"Molecule": "CC(NC(C)(C)C)C(=O)c1cccc(Cl)c1 (centres unmarked)", "System Name": "α3β4 nAChR (Rattus norvegicus, UniProt P04757+P12392)", "Observed Measurement": 12.97}

----------
System Name: α3β4 nAChR (Rattus norvegicus, UniProt P04757+P12392)
Protocol Text: biochemical
Format: binding
Set-up: host or cells: HEK293 (KXα3β4R2)
Settings: α3β4 nAChR, NLC; read-out: kon association constant rate
Each record here notes measured kon.

{"Compound": "CC(NC(C)(C)C)C(=O)c1cccc(Cl)c1 (stereo not drawn)", "System Name": "α3β4 nAChR (Rattus norvegicus, UniProt P04757+P12392)", "kon (M⁻¹ s⁻¹)": "2.87e+07"}
{"Compound": "COc1ccc(CCNCCCC(C#N)(c2ccc(OC)c(OC)c2)C(C)C)cc1OC (single isomer, unassigned)", "System Name": "α3β4 nAChR (Rattus norvegicus, UniProt P04757+P12392)", "kon (M⁻¹ s⁻¹)": "1.6e+07"}
{"Compound": "CN[C@@H](C)Cc1ccccc1", "System Name": "α3β4 nAChR (Rattus norvegicus, UniProt P04757+P12392)", "kon (M⁻¹ s⁻¹)": "2.91e+07"}
{"Compound": "CC12CC3CC(C)(C1)CC(N)(C3)C2 [memantine]", "System Name": "α3β4 nAChR (Rattus norvegicus, UniProt P04757+P12392)", "kon (M⁻¹ s⁻¹)": "1.88e+07"}
{"Compound": "CC(=O)Nc1ccccc1 [acetanilide]", "System Name": "α3β4 nAChR (Rattus norvegicus, UniProt P04757+P12392)", "kon (M⁻¹ s⁻¹)": "8.2e+06"}
{"Compound": "NC12CC3CC(CC(C3)C1)C2", "System Name": "α3β4 nAChR (Rattus norvegicus, UniProt P04757+P12392)", "kon (M⁻¹ s⁻¹)": "3.08e+07"}
{"Compound": "CC[n+]1c(-c2ccccc2)c2cc(N)ccc2c2ccc(N)cc21", "System Name": "α3β4 nAChR (Rattus norvegicus, UniProt P04757+P12392)", "kon (M⁻¹ s⁻¹)": "3.59e+07"}
{"Compound": "COc1ccc(CC2c3cc(OC)c(OC)cc3CCN2C)cc1OC (stereo not drawn)", "System Name": "α3β4 nAChR (Rattus norvegicus, UniProt P04757+P12392)", "kon (M⁻¹ s⁻¹)": "2.5e+07"}
{"Compound": "C[C@]12N[C@H](Cc3ccccc31)c1ccccc12", "System Name": "α3β4 nAChR (Rattus norvegicus, UniProt P04757+P12392)", "kon (M⁻¹ s⁻¹)": "2.71e+07"}
